The reported numbers originate from ChEMBL document CHEMBL1773011.

Exercise: state measured IC50 for each of the compounds provided.
Assay: Displacement of Eu-DTPA labeled ASOR from rat primary hepatocytes Asialoglycoprotein receptor after 20 mins by fluorometric analysis
Type: cell-based
Conditions: hepatocyte
Give bare numbers, in nM.

Some compounds with known IC50 results, for comparison:
{"columns": ["Compound", "IC50 [nM]"],
 "data": [
  ["CC(=O)NC1C(OCCCCCCNC(=O)CNC(=O)C[C@H](NC(=O)[C@H](CC(=O)NCC(=O)NCCCCCCOC2O[C@@H](CO)[C@@H](O)[C@@H](O)C2NC(C)=O)NC(=O)[C@@H](N)Cc2ccc(O)cc2)C(=O)NCC(=O)NCCCCCCOC2O[C@@H](CO)[C@@H](O)[C@@H](O)C2NC(C)=O)O[C@@H](CO)[C@@H](O)[C@H]1O (single isomer, unassigned)", 20],
  ["CC(=O)N[C@@H]1C(OCCCCCCNC(=O)C(CCCCNC(=O)OCc2ccccc2)N(CC(=O)NCCCCCCOC2O[C@H](CO)[C@H](O)[C@H](O)[C@H]2NC(C)=O)CC(=O)NCCCCCCOC2O[C@H](CO)[C@H](O)[C@H](O)[C@H]2NC(C)=O)O[C@@H](CO)[C@@H](O)[C@H]1O (stereo in doubt)", 12]
]}

Switching to the query record.
What measured IC50 goes with CC(=O)N[C@H]1C(OCCCCCCNC(=O)CNC(=O)CN(CC(=O)NCC(=O)NCCCCCCOC2O[C@H](CO)[C@H](O)[C@H](O)[C@H]2NC(C)=O)C(CCCCNC(=O)OCc2ccccc2)C(=O)NCC(=O)NCCCCCCOC2O[C@H](CO)[C@H](O)[C@H](O)[C@H]2NC(C)=O)O[C@H](CO)[C@H](O)[C@@H]1O (stereo in doubt) ?
1
